tested on: NIH3T3; assay: Cytotoxic Profiling of Annotated Libraries Using Quantitative High-Throughput Screening (AID 1296008); settings: Five cell lines viability, CellTiter-Glo ATP luminescence, 48-72 h; hits give low values; note: % is set by controls: 0 for no effect and ±100 for the full control effect; nearly all actives have a fitted effect of over 60% in size
Inconclusive results are not listed.
MEASURED_ATTRIBUTE: max response (%)
# number only, unit % dropped from output

// worked examples, max response included
1) Cc1nc(C)c(-c2ccc(C3CCC(CC(=O)O)CC3)cc2)nc1C(N)=O (stereo not drawn)	2.81
2) CC(C)=CCC/C(C)=C/CCC1(C)Oc2c(c(O)cc3c2CN(C(CCC(=O)O)C(=O)O)C3=O)CC1O (stereo not drawn)	-11
3) CCC(C)C(=O)O[C@H]1CCC=C2C=C[C@H](C)[C@H](CC[C@@H](O)C[C@@H](O)CC(=O)O)[C@H]21 (stereo partly drawn)	-16.9

Write down the reported max response of Cc1ccc(F)cc1C(=O)Nc1ccc(C(=O)N2Cc3cccn3Cc3ccccc32)c(Cl)c1 , test system: NIH3T3. -21.1

Then what about the compound COc1cc2c(cc1O)[C@H](c1ccc(O[C@@H]3O[C@H](CO)[C@@H](O)[C@H](O)[C@H]3O)c(OC)c1)[C@@H](CO)[C@](O)(CO)C2 ? 2.92
